test system: mice; assay: central nervous system toxicity observation in mice (ataxia, convulsions, loss of righting reflex, death); format: in vivo, mouse (female Swiss albino, Ham/ICR); details: 100 mg/kg s.c., 10 mice
measured_attribute: Toxicity: Death (number of mice)
Could you keep your reply to the number by itself?

query: What value of Toxicity: Death (number of mice) has been recorded for this entry: CCNCC(=O)Nc1cc(OC)c(OC)cc1Cc1nccc2cc(OC)c(OC)cc12 [Compound 2]
result: 0

query: Would you kindly share the measured Toxicity: Death (number of mice) for CCN(CC)CC(=O)Nc1cc(OC)c(OC)cc1Cc1nccc2ccccc12 [Compound 6] ?
result: 0

query: Which measured Toxicity: Death (number of mice) value corresponds to CCN(CC)CC(=O)Nc1cc(OC)c(OC)cc1Cc1nccc2cc(OC)c(OC)cc12 [Compound 1] ?
result: 0
